assay-protocol: Rat Liver Microsome Stability Assay
Format: in vitro ADME
protocol-conditions: rat liver microsomes, 1 uM compound
Reported values of RLM % Qh (%) for individual entries
// units = %; emit number, no label

compound	quantitative-readout
COc1cc(O[C@H]2CC[C@H](C)N(Cc3cnc(NC(C)=O)s3)C2)ncn1	81
CC(=O)Nc1nc(F)c(CN2CCC[C@H](Oc3cc(C)nc(C)c3)C2)s1	78
CC(=O)Nc1ncc(CN2C[C@H](Oc3ccccn3)C[C@@H]2C)s1	68
CC(=O)Nc1nc(F)c(CN2C[C@H](Oc3cc(C)nc(C)c3)CC[C@@H]2C)s1	93
CCOc1cc(O[C@@H]2C[C@H](C)N(Cc3cnc(NC(C)=O)s3)C2)ncn1	48
CC(=O)Nc1nc(F)c(CN2C[C@H](Oc3cc(N4CCOCC4)ncn3)C[C@@H]2C)s1	45
[2H]C(c1cnc(NC(C)=O)s1)N1C[C@H](Oc2cc(OC)ncn2)C[C@@H]1C (single isomer, unassigned)	29

For CC(=O)Nc1ncc(CN2C[C@H](Oc3cc(OC(C)C)ncn3)C[C@@H]2C)s1 , what is its reported RLM % Qh (%)?
62

----------
Test system: P-gp (MDR1)
assay-protocol: MDR1-MDCK Efflux Ratio Assay
Format: in vitro ADME
protocol-conditions: dog, MDCK-MDR1, pH 7.4, repeated assay, value marked with asterisk (*); read-out: MDR1-MDCK Efflux Ratio (B-A/A-B)
Reported values of efflux ratio at 2 h for individual entries
Enter a number only.

Answered examples (3):
compound	assay-target	quantitative-readout
CC(=O)Nc1ncc(CN2C[C@H](Oc3ccc(F)cn3)C[C@@H]2C)s1 [Example 1-11]	P-gp (MDR1)	1.9
CC(=O)Nc1ncc(CN2C[C@H](Oc3cnc(Cl)cc3C)C[C@@H]2C)s1 [Example 1-17]	P-gp (MDR1)	12.4
COc1cncc(O[C@@H]2C[C@H](C)N(Cc3cnc(NC(C)=O)s3)C2)n1 [Example 1-12]	P-gp (MDR1)	8.9

For CC(=O)Nc1ncc(CN2CCC[C@H](Oc3ccc(F)cn3)C2)s1 [Example 1-2] , what is its reported efflux ratio at 2 h?
2.1

For CC(=O)Nc1ncc(CN2C[C@H](Oc3ccnc(OC(F)F)c3)C[C@@H]2C)s1 [Example 1-20] , what is its reported efflux ratio at 2 h?
3

For CC(=O)Nc1ncc(CN2CCC[C@@H](Oc3ccc(F)cn3)C2)s1 [Example 1-3] , what is its reported efflux ratio at 2 h?
2.2

----------
assay-target: Recombinant full length human OGA enzyme (Homo sapiens (Human), UniProt O60502)
Sequence (O60502 whole entry): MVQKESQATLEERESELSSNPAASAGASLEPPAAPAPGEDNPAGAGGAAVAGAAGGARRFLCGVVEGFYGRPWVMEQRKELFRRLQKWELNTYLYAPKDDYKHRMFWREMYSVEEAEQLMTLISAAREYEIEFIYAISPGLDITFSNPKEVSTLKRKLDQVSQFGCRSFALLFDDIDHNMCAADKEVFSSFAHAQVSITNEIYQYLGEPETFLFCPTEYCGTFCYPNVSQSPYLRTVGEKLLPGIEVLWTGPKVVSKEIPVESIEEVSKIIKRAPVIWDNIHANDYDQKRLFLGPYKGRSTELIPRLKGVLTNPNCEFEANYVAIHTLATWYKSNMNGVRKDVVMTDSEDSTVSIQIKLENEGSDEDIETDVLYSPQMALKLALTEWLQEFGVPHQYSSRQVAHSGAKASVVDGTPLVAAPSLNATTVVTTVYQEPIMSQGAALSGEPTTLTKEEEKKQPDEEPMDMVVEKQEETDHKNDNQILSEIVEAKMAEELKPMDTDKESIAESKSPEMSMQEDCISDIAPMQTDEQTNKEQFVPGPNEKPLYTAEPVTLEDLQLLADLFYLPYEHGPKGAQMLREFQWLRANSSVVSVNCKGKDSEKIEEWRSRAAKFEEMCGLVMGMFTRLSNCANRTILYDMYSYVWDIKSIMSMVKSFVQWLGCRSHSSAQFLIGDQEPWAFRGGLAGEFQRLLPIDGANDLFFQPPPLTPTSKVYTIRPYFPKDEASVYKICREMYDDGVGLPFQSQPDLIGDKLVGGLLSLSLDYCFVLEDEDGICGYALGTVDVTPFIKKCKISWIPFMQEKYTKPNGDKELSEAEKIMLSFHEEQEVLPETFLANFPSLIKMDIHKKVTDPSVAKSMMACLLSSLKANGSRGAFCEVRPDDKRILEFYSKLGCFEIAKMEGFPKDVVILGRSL
assay-protocol: OGA Enzyme Inhibition Biochemical Assay
protocol-conditions: 1 nM OGA, 100 μM 4-MUGlcNAc, pH 6.4
Reported values of IC50 for individual entries
// units = µM; emit number, no label

CC(=O)Nc1ncc(CN2CC[C@H](Oc3cc(C)nc(C)c3)C2)s1 0.52

Give Recombinant full length human OGA enzyme (Homo sapiens (Human), UniProt O60502) IC50 for COc1cc(O[C@H]2CCN(Cc3sc(NC(C)=O)nc3F)C2)ncn1
0.85

----------
assay-target: OGA (S400 O-GLCNAC), HEK-293T cells transfected with Tau-V5 (Homo sapiens (Human), UniProt O60502)
assay-protocol: Cellular OGA-Tau MSD Assay
Assay type: cell-based
protocol-conditions: repeated assay, value marked with asterisk (*)
observed-property: pIC50
// pIC50: -log10(molar conc.)

compound	pIC50
COc1cncc(O[C@@H]2C[C@H](C)N(Cc3cnc(NC(C)=O)s3)C2)n1 [Example 1-12]	8.70
CC(=O)Nc1ncc(CN2C[C@H](Oc3cc(Cl)ncn3)C[C@@H]2C)s1 [Example 1-21]	8.10
COc1ncnc(O[C@@H]2C[C@H](C)N(Cc3cnc(NC(C)=O)s3)C2)c1F [Example 1-19]	8.22

Lab note: next compound to report on.
For CC(=O)Nc1ncc(CN2C[C@H](Oc3ccnc(OC(F)F)c3)C[C@@H]2C)s1 [Example 1-20] , what is its reported pIC50?
8.15
